Ref: ChEMBL document CHEMBL1153511

Item-by-item account of Ratio
Biological target: Sphingosine 1-phosphate receptor 1 (Homo sapiens) (UniProt P21453)
Sequence (P21453 whole entry): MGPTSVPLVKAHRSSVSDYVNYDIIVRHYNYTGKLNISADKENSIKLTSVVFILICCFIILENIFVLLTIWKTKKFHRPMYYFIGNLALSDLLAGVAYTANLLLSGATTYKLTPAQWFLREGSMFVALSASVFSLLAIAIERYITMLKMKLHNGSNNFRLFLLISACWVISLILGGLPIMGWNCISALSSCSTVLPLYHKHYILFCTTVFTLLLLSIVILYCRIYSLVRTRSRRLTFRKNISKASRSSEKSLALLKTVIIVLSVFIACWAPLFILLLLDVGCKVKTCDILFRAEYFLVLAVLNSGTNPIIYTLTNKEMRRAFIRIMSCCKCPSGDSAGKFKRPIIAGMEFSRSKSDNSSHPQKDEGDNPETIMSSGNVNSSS
Experiment: Ratio of agonistic Emax for S1P to compound for human S1P1 receptor by [35S]GTPgammaS binding assay
Type: functional
Reply briefly: the number, and no unit.

For orientation, consider the following solved cases.
{"compound": "CCCCCCCCc1ccc(-c2coc(C(C)(N)COP(=O)(O)O)n2)cc1 (stereo not given)", "tgt": "Sphingosine 1-phosphate receptor 1 (Homo sapiens) (UniProt P21453)", "Ratio": 0.8}
{"compound": "CCCCCCCCc1ccc(-c2cnc([C@@](C)(N)COP(=O)(O)O)[nH]2)cc1.O=C(O)C(F)(F)F.O=C(O)C(F)(F)F", "tgt": "Sphingosine 1-phosphate receptor 1 (Homo sapiens) (UniProt P21453)", "Ratio": 0.87}
{"compound": "CCCCCCCCc1ccc(-c2noc(C(C)(N)COP(=O)(O)O)n2)cc1 (racemic)", "tgt": "Sphingosine 1-phosphate receptor 1 (Homo sapiens) (UniProt P21453)", "Ratio": 0.89}
{"compound": "CCCCCCCCc1ccc(-c2nc(C(C)(N)COP(=O)(O)O)no2)cc1 (stereo not given)", "tgt": "Sphingosine 1-phosphate receptor 1 (Homo sapiens) (UniProt P21453)", "Ratio": 1}

Then there is this compound:
Would you mind telling me what Ratio value was observed for CCCCCCCCc1ccc(-c2cnc([C@](C)(N)COP(=O)(O)O)[nH]2)cc1.O=C(O)C(F)(F)F.O=C(O)C(F)(F)F ?
0.92

====

Molecular target: UniProtKB P21453
Assay: Ratio of agonistic EC50 for S1P to compound for human S1P1 receptor by [35S]GTPgammaS binding assay
Format: functional
property: Ratio EC50
Reply briefly: the number, and no unit.

Would you mind telling me what Ratio EC50 value was observed for CCCCCCCCc1ccc(-c2cnc([C@](C)(N)COP(=O)(O)O)[nH]2)cc1.O=C(O)C(F)(F)F.O=C(O)C(F)(F)F ?
8.09

Would you mind telling me what Ratio EC50 value was observed for CCCCCCCCc1ccc(-c2nc(C(C)(N)COP(=O)(O)O)no2)cc1 (stereo not given) ?
2.5

Would you mind telling me what Ratio EC50 value was observed for CCCCCCCCc1ccc(-c2coc(C(C)(N)COP(=O)(O)O)n2)cc1 (stereo not given) ?
4.28

Would you mind telling me what Ratio EC50 value was observed for CCCCCCCCc1ccc(-c2cnc([C@@](C)(N)COP(=O)(O)O)[nH]2)cc1.O=C(O)C(F)(F)F.O=C(O)C(F)(F)F ?
1.09

Would you mind telling me what Ratio EC50 value was observed for CCCCCCCCc1ccc(-c2noc(C(C)(N)COP(=O)(O)O)n2)cc1 (racemic) ?
24.4
